All figures here come from patent US10570179B2.

test: Plasma pharmacokinetics; type: in vivo, male BALB/c mice; settings: male, BALB/c, mouse, in vivo, iv
Numbered stars: 1 amine (or outer) side, 2 acyl side, 3 side chain; on linkers, the order of the positions; unused ones are H or OH. Bridge positions count the residues as written; N and C are the ends. Square brackets hold non-standard residues; d marks the D form. Peptide text beside a SMILES is read from it. * marks the point of attachment. Piperazine(2S-CO,4-Me) = CN1CCN[C@H](C(=O)O)C1; Morpholine(3S-CO) = O=C(O)[C@@H]1COCCN1; Phe(3-Me) = Cc1cccc(C[C@H](N)C(=O)O)c1; NH(4-Cl-2-F-phenyl) = Fc1cc(Cl)ccc1N*; Pro(4R-Me) = C[C@H]1CN[C@H](C(=O)O)C1; X1 = O=C([C@@H]1CSCCN1[*:1])[*:2]; Hyp = O=C(O)[C@@H]1C[C@@H](O)CN1; NH(4-Et-phenyl) = CCc1ccc(N*)cc1; aThr = C[C@H](O)[C@H](N)C(=O)O; CO = O=C([*:1])[*:2]
Catalogue of compounds with associated half-life
Your answer should be a plain number; it is taken to be in h.

Here are 3 compounds together with their reported answers.
>  <compound>
Cc1cccc(C[C@H](NC(=O)Nc2ccc3c(c2)OCO3)C(=O)N[C@H]2COC(=O)[C@@H]3C[C@@H](C)CN3C(=O)[C@H](C)NC(=O)[C@@H]3CCCCN3C(=O)[C@@H]3CCCN3C2=O)c1

>  <recordedResult>
4.57

$$$$
>  <compound>
Cc1cccc(C[C@H](NC(=O)Nc2ccc(Cl)cc2F)C(=O)N[C@@H]2C(=O)N3CCC[C@H]3C(=O)N3CCSC[C@H]3C(=O)N[C@@H](C)C(=O)N3C[C@H](C)C[C@H]3C(=O)O[C@H]2C)c1 [Compound 38] ({NH(4-Cl-2-F-phenyl)-CO}-[Phe(3-Me)][aThr]P[X1]A[Pro(4R-Me)]; ester 2-C)

>  <recordedResult>
3.11

$$$$
>  <compound>
CCc1ccc(NC(=O)N[C@@H](Cc2cccc(C)c2)C(=O)N[C@H]2COC(=O)[C@@H]3C[C@@H](C)CN3C(=O)[C@H](C)NC(=O)[C@@H]3CN(C)CCN3C(=O)[C@@H]3CCCN3C2=O)cc1 [Compound 16] ({NH(4-Et-phenyl)-CO}-[Phe(3-Me)]SP[Piperazine(2S-CO,4-Me)]A[Pro(4R-Me)]; ester 2-C)

>  <recordedResult>
0.25

$$$$

# evaluate next
Quick check: half-life of CCc1ccc(NC(=O)N[C@@H](Cc2cccc(C)c2)C(=O)N[C@@H]2C(=O)N3C[C@H](O)C[C@H]3C(=O)N3CCOC[C@H]3C(=O)N[C@@H](C)C(=O)N3C[C@H](C)C[C@H]3C(=O)O[C@H]2C)cc1 [Compound 24] ({NH(4-Et-phenyl)-CO}-[Phe(3-Me)][aThr][Hyp][Morpholine(3S-CO)]A[Pro(4R-Me)]; ester 2-C) ?
0.34
